Hello, the source for this data is PubChem BioAssay (NCI), in case you need it.

# Test system: K-562 leukemia
# assay method text: NCI tumour cell line growth inhibition, 48 h
Parameter: GI50. Scope: all listed entries.
quantity measured: GI50

INSERT INTO measurements (compound, result) VALUES
  ('CCOC(=O)c1c(-c2ccc(OC)cc2)c(C#N)c2c(C#N)c(N)nn2c1N', '1180 nM'),
  ('O=[N+]([O-])c1cccc2ccc(N/N=C/c3ccccc3O)nc12', '1460 nM'),
  ('C#Cc1nc(Nc2cc(C)[nH]n2)c2ccccc2n1', '349 nM'),
  ('CC1(Br)Cc2ccccc2C1=O (configuration not stated)', '571 nM'),
  ('CCN(Cc1ccc(F)cc1)c1ccc(CO)c(Br)c1', '487 nM'),
  ('COc1ccc(-c2cc(/C=C/C(=O)c3ccc(OC)c(OC)c3)[nH]n2)cc1', '1280 nM'),
  ('COC(=O)c1cc2c(s1)-c1nccc3c1c(nc1ccccc13)C2=O', '> 100000 nM'),
  ('COc1ccc(C(O)(CCC(C)C)C(CN2CCOCC2)c2ccc(Cl)cc2)cc1 (configuration not stated)', '15100 nM'),
  ('CCOC(=O)/C=C/c1ccc(C#Cc2ccccc2)cc1', '72000 nM'),
  ('CC(C)=CCc1cc(O)cc2c1OC(C=C(C)C)C1=C2C(=O)C2=C(C1=O)S(=O)(=O)CCN2 (configuration not stated)', '4680 nM'),
  ('O=[P@@]1(c2ccccc2)O[C@H](COCc2ccccc2)[C@@H](OCc2ccccc2)[C@H](OCc2ccccc2)[C@H]1NCc1ccccc1', '2860 nM'),
  ('O=C1CCC/C=C\C[C@H]2C=CC(=O)/C2=C/C[C@H](C/C=C\CC(F)(F)F)O1', '503 nM');

* * *

# System: SK-MEL-28 melanoma
# assay method text: NCI tumour cell line growth inhibition, 48 h
quantity measured: TGI (µM)

INSERT INTO results (compound, result_comparator, measured_number) VALUES
  ('Cn1c2c(c3ccccc31)CCN1C(=O)CN(C(=O)C3CCCCC3)CC21 (centres undefined)', '>', 100),
  ('O=C(Nc1cc(C(F)(F)F)ccc1Cl)c1cccc(NC2=C(Cl)C(=O)N(Cc3ccccc3)C2=O)c1', '>', 100),
  ('C=CCN1CCC23c4c5ccc(O)c4OC2C(=NN=C2CCC4(O)C6Cc7ccc(O)c8c7C4(CCN6CC=C)C2O8)CCC3(O)C1C5 (centres undefined)', '=', 35.3),
  ('Oc1ccc(Nc2c3ccccc3nc3occ(Cl)c23)cc1', '=', 63.8),
  ('CCOC(=O)C1SC(=Nc2ccccc2)N=C1C (centres undefined)', '>', 100),
  ('CC(=O)OCC1OC(OC2CC3C(C)(C)C(O)CC[C@]3(C)C3CCC45CC4(CCC5[C@@H](C)CC(O)C(O)C(C)(C)O)[C@]23C)C(O)C(O)C1O (some centres undefined)', '>', 10),
  ('C=CCC1(CN(C)C)CC/C(=C\c2ccc(Cl)cc2)C1=O (centres undefined)', '>', 100),
  ('CCN(Cc1ccc(F)cc1)c1ccc(CO)c(Br)c1', '=', 50.6),
  ('CCOC(=O)c1c2c(n(Cc3ccccc3)c1C)C(=O)C(=O)c1ccccc1-2', '=', 0.601);
